Task for the reader: assign each of the following compounds its reported CRE.
# Species on record: Rattus norvegicus
# Procedure Text: Open TG-GATES - Regimen: Single
# Format: toxicity, organism-based, Sprague-Dawley
# Set-up: regimen Single, gender Male, age 6 weeks
# Test Context: in vivo, po, 0 mg/kg, 9 h, tissue Plasma, route gavage, dose level Control
Give bare numbers, in mg/dL.

Check out these entries, answers already filled in.
Sure, the documented CRE for `Cc1ccc(C)c(OCCCC(C)(C)C(=O)O)c1` is 0.2

// `CC1=C(/C=C/C(C)=C/C=C/C(C)=C/CO)C(C)(C)CCC1` : CRE value = 0.1

Record summary for `CN1C(=O)CN=C(c2ccccc2)c2cc(Cl)ccc21` : reported CRE = 0.6

Kindly note the recorded CRE for CCOC(=O)CCC(=O)O[C@H]1[C@H](O[C@@H]2[C@@H](C)[C@H](O[C@H]3C[C@@](C)(OC)[C@@H](O)[C@H](C)O3)[C@@H](C)C(=O)O[C@H](CC)[C@@](C)(O)[C@H](O)[C@@H](C)C(=O)[C@H](C)C[C@@]2(C)O)O[C@H](C)C[C@@H]1N(C)C [ERYTHROMYCIN ETHYLSUCCINATE] , which is 0.2

Quick note, CRE for `CC/C(=C(\c1ccccc1)c1ccc(OCCN(C)C)cc1)c1ccccc1` landed at 0.2

compound `NC(N)=Nc1nc(CSCCC(N)=NS(N)(=O)=O)cs1` , CRE observed: 0.3

Lookup result for CC(C)OC(=O)C(C)(C)Oc1ccc(C(=O)c2ccc(Cl)cc2)cc1 [FENOFIBRATE] ; measured CRE: 0.2

CRE recorded for this compound, COc1ccc2[nH]c([S+]([O-])Cc3ncc(C)c(OC)c3C)nc2c1 (configuration not stated) , is 0.3

CRE measured on `C[C@@H]1C[C@H]2[C@@H]3CCC4=CC(=O)C=C[C@]4(C)[C@@]3(F)[C@@H](O)C[C@]2(C)[C@@]1(O)C(=O)CO` = 0.3

The compound listed as `CN(C)CCN(Cc1cccs1)c1ccccn1` has a reported CRE of 0.2

Each of the following entries comes with a recorded value; kindly state CRE for each.
1. O=C(CCCN1CCC(O)(c2ccc(Cl)cc2)CC1)c1ccc(F)cc1
2. COC1=CC(=O)C[C@@H](C)[C@]12Oc1c(Cl)c(OC)cc(OC)c1C2=O

[0.5, 0.4]

====

# Species: Rattus norvegicus
# Procedure Text: Open TG-GATES - Regimen: Daily Repeat
# Format: toxicity, organism-based, Sprague-Dawley
# Design: regimen Daily Repeat, gender Male, age 6 weeks
# Test Context: in vivo, po, 0 mg/kg, […], tissue Blood, route gavage, dose level Control, time 7 day
So I've got a bunch of compounds here, and I need their WBC values.
Answers are plain numbers, in x10_2/uL.

compound `COC1=CC(=O)C[C@@H](C)[C@]12Oc1c(Cl)c(OC)cc(OC)c1C2=O` , WBC observed: 117.8

Okay, here is my list. What is WBC for each of these?
1. CCCNC(=O)NS(=O)(=O)c1ccc(Cl)cc1 [CHLORPROPAMIDE]
2. CCOc1ccc(NC(=O)CC(C)O)cc1 (stereo not drawn)
3. CN(C)CCN(Cc1cccs1)c1ccccn1
4. NC(N)=Nc1nc(CSCCC(N)=NS(N)(=O)=O)cs1
5. CC1=C(/C=C/C(C)=C/C=C/C(C)=C/CO)C(C)(C)CCC1
6. COc1ccc2[nH]c([S+]([O-])Cc3ncc(C)c(OC)c3C)nc2c1 (stereo not drawn)
7. CCOC(=O)CCC(=O)O[C@H]1[C@H](O[C@@H]2[C@@H](C)[C@H](O[C@H]3C[C@@](C)(OC)[C@@H](O)[C@H](C)O3)[C@@H](C)C(=O)O[C@H](CC)[C@@](C)(O)[C@H](O)[C@@H](C)C(=O)[C@H](C)C[C@@]2(C)O)O[C@H](C)C[C@@H]1N(C)C [ERYTHROMYCIN ETHYLSUCCINATE]

1. 98.4
2. 93.2
3. 122.7
4. 82.2
5. 114.1
6. 124.1
7. 121.5
